The measurements presented in this section are drawn from paper PMC9502754.

# SYSTEM TESTED: MRSA pyruvate kinase (PK) (Staphylococcus aureus)
# Sequence (Q2FG40 1-585): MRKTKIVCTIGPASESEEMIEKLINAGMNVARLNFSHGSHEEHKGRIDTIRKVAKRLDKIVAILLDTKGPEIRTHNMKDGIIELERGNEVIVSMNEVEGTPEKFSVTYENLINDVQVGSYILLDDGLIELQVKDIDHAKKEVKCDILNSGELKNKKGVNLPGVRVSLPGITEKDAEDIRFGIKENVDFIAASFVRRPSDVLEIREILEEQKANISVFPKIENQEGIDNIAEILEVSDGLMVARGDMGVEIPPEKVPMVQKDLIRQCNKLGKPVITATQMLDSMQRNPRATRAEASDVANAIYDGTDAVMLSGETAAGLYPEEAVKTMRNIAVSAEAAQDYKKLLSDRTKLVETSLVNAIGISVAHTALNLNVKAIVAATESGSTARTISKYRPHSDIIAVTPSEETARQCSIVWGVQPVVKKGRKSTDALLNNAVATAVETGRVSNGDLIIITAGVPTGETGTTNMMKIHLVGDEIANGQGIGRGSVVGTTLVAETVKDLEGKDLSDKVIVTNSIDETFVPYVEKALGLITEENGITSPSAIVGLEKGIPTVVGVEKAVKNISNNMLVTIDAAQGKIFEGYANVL
MEASURE NAME: IC50 (nM)
Give bare numbers, in nM.

• Oc1ccc2c(-c3c4cc(F)sc4cc4[nH]c5cc(O)ccc5c34)c[nH]c2c1 [3c] = 1600
• Fc1cc2cc3[nH]c4cc(Cl)ccc4c3c(-c3c[nH]c4cc(Cl)ccc34)c2s1 [4f] = 2300
• Fc1cc2c(-c3c[nH]c4ccc(Cl)cc34)c3c(cc2s1)[nH]c1ccc(Cl)cc13 [3f] = 2100

Next item in the queue.
According to the records, this compound Fc1cc2c(-c3c[nH]c4ccc(Br)cc34)c3[nH]c4ccc(Br)cc4c3cc2s1 [6d] displays IC50 of 3500
